The reported measurements were obtained from patent EP2246362B1.

Entries and their KIRA: ∼Max Efficacy vs WT
- System: c-Ret on NB41A3-mRL3 cells (UniProt P35546 29-1115, limits assumed)
- Sequence (P35546 29-1115 limits assumed): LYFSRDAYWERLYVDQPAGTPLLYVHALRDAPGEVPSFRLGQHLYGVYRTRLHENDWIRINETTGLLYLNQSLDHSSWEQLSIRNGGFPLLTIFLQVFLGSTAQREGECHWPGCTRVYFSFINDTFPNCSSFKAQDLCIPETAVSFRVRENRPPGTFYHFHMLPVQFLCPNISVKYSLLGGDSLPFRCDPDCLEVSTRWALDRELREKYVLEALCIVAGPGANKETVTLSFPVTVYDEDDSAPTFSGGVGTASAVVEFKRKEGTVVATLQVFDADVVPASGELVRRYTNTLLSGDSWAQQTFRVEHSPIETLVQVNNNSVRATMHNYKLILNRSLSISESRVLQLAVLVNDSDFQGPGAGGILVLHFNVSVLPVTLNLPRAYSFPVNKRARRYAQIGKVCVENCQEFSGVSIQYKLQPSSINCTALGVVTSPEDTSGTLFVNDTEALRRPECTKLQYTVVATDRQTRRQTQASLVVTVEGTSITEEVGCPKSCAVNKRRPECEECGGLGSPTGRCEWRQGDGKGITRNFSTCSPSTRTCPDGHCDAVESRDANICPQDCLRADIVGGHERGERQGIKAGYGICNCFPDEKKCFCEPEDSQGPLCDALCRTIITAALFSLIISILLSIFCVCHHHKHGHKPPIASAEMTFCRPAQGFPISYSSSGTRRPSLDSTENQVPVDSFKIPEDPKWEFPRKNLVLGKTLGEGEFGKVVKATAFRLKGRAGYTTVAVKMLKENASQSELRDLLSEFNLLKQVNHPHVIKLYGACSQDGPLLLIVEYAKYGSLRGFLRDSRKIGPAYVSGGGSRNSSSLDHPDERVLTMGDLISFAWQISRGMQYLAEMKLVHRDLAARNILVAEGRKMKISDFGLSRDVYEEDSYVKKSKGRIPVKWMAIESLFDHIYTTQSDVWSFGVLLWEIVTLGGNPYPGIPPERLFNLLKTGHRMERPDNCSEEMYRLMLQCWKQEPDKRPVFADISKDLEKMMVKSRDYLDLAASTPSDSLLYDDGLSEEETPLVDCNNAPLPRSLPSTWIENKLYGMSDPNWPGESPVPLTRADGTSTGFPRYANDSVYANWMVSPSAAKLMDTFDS
- Experiment summary: cell-based or functional assay
Metric: KIRA: ∼Max Efficacy vs WT

binder="3 X 10 kDa PEG-WT/N95K-NBN106 (ligand, 10 kDa PEG on the amino-terminal amino acid and on Lys95; 10 kDa PEG on the amino-terminal amino acid) chain 1: ARATDARGCRLRSQLVPVSALGLGHSSDELIRFRFCSGSCRRARSPHDLSLASLLGAGALRSPPGSRPISQPCCRPTRYEAVSFMDVNSTWRTVDHLSATACGCLG chain 2: ARATDARGCRLRSQLVPVSALGLGHSSDELIRFRFCSGSCRRARSPHDLSLASLLGAGALRSPPGSRPISQPCCRPTRYEAVSFMDVKSTWRTVDHLSATACGCLG" metric="KIRA: ∼Max Efficacy vs WT" measured_result=~115%
binder="2 X 20 kDa PEG-NBN (ligand, 20 kDa PEG on amino acid 1 of each chain (cell printed '1,1 1')) AGTRSSRARATDARGCRLRSQLVPVSALGLGHSSDELIRFRFCSGSCRRARSPHDLSLASLLGAGALRSPPGSRPISQPCCRPTRYEAVSFMDVNSTWRTVDHLSATACGCLG" metric="KIRA: ∼Max Efficacy vs WT" measured_result=~80%
binder="3(,4) X 10 kDa PEG NBN106-N95K (ligand, average of 3.3 10 kDa PEG (SPA-PEG) per dimer: on both amino-terminal amino acids and on one or both Lys95 (PEGylated amino acids 1,1,95 (,95))) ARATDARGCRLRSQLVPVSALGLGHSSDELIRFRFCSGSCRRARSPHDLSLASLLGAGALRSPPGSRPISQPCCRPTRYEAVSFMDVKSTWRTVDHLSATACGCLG" metric="KIRA: ∼Max Efficacy vs WT" measured_result=~90%
binder="3 X 10 kDa PEG NBN106-N95K (ligand, three 10 kDa PEG per dimer: on both amino-terminal amino acids and on one Lys95 (PEGylated amino acids 1,1,95)) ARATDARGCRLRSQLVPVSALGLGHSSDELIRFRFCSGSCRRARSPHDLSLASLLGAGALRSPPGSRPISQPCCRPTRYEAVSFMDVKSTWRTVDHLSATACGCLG" metric="KIRA: ∼Max Efficacy vs WT" measured_result=~100%
